src = patent US10377774B2

# measurement.protocol: Acute toxicity test
# Assay type: in vivo
# condition.notes: mouse, in vivo, ip; Kunming mice, injected intraperitoneally; read-out: LD50 (median lethal dose)
reported.metric: LD50 (mg/kg)
Report the figure in mg/kg without appending any unit label.

Ask: May I ask what LD50 has been recorded for CC[C@]1(O)C[C@@H]2CN(CCc3c([nH]c4ccccc34)[C@@](C(=O)OC)(c3cc4c(cc3OC)N(C)[C@H]3[C@@](O)(C(=O)OC)[C@H](OC(C)=O)[C@]5(CC)C=CCN6CC[C@]43[C@@H]65)C2)C1 [Vinblastine, reference compound] ?
Result: 4

---

# Test system: MDA-MB-231 xenografts
# measurement.protocol: MDA-MB-231 xenografts in nude mice
# Assay type: in vivo, BALB/nu/nu mice
# condition.notes: MDA-MB-231 xenograft nude mice, 1 mg/kg i.p. every two days, 8 administrations
Record form. Attribute: Body weight (g) Post-dose. Fill in for each entry.

Ask: # input compound: CCC1(O)CC2CN(CCc3c([nH]c4ccccc34)C(C(=O)OC)(c3cc4c(cc3OC)N(C=O)C3C(O)(C(=O)NNC(=O)C5CCCN5C(=O)CNC(=O)OCc5ccccc5)C(O)C5(CC)C=CCN6CCC43C65)C2)C1 (stereo not drawn) ; wanted: its Body weight (g) Post-dose
Result: 21.9 ± 2.9 g

Ask: Continue with CCC12C=CCN3CCC4(c5cc(C6(C(=O)OC)CC7CC(C(C)(F)F)CN(Cc8c6[nH]c6ccccc86)C7)c(OC)cc5N(C)C4C(O)(C(=O)NNC(=O)C4CCCN4C(=O)CNC(=O)OCc4ccccc4)C1O)C32 (stereo not drawn)
Result: 20.6 ± 1.6 g

Ask: Same thing, different compound: CC[C@]1(O)C[C@@H]2CN(CCc3c([nH]c4ccccc34)[C@@](C(=O)OC)(c3cc4c(cc3OC)N(C)[C@H]3[C@@](O)(C(=O)NN)[C@H](O)[C@]5(CC)C=CCN6CC[C@]43[C@@H]65)C2)C1 [JJ-CCJ, hydrazinolyzed vinblastine]
Result: 16.4 ± 1.7 g

Ask: Also, CC[C@]12C=CCN3CC[C@@]4(c5cc([C@@]6(C(=O)OC)C[C@@H]7C[C@@H](C(C)(F)F)CN(Cc8c6[nH]c6ccccc86)C7)c(OC)cc5N(C)[C@H]4[C@@](O)(C(=O)NN)[C@@H]1O)[C@@H]32 [JJ-CCFN, hydrazinolyzed vinflunine] please.
Result: 16.3 ± 0.7 g

Ask: Next compound up: CC[C@]1(O)C[C@@H]2CN(CCc3c([nH]c4ccccc34)[C@@](C(=O)OC)(c3cc4c(cc3OC)N[C@H]3[C@@](O)(C(=O)NN)[C@H](O)[C@]5(CC)C=CCN6CC[C@]43[C@@H]65)C2)C1 [JJ-CCXJ, hydrazinolyzed vincristine]
Result: 17.3 ± 1.2 g

Ask: Next up: CC[C@]1(O)C[C@@H]2CN(CCc3c([nH]c4ccccc34)[C@@](C(=O)OC)(c3cc4c(cc3OC)N(C)[C@H]3[C@@](O)(C(=O)OC)[C@H](OC(C)=O)[C@]5(CC)C=CCN6CC[C@]43[C@@H]65)C2)C1 [Vinblastine, reference compound]
Result: 18.3 ± 2.4 g

Ask: What about this compound? CCC1(O)CC2CN(CCc3c([nH]c4ccccc34)C(C(=O)OC)(c3cc4c(cc3OC)N(C)C3C(O)(C(=O)NNC(=O)C5CCCN5C(=O)CNC(=O)OCc5ccccc5)C(O)C5(CC)C=CCN6CCC43C65)C2)C1 (stereo not drawn)
Result: 21.2 ± 2.1 g

Ask: Try CCC1=CC2CN(C1)Cc1c([nH]c3ccccc13)C(C(=O)OC)(c1cc3c(cc1OC)N(C)C1C(O)(C(=O)NNC(=O)C4CCCN4C(=O)CNC(=O)OCc4ccccc4)C(O)C4(CC)C=CCN5CCC31C54)C2 (stereo not drawn) next.
Result: 20.1 ± 0.9 g

Ask: Try the compound CCC1=C[C@@H]2CN(C1)Cc1c([nH]c3ccccc13)[C@@](C(=O)OC)(c1cc3c(cc1OC)N(C)[C@H]1[C@@](O)(C(=O)NN)[C@H](O)[C@]4(CC)C=CCN5CC[C@]31[C@@H]54)C2 [JJ-CCRB, hydrazinolyzed vinorelbine]
Result: 16.7 ± 1.4 g
